# System: SK-MEL-5 melanoma
# Test protocol: NCI tumour cell line growth inhibition, 48 h
Parameter: TGI

- Compound: "CCOC1OC(C)(C=C(C#N)C#N)CCC1C (stereo unspecified)"
  Value reported: "> 100 µM"
- Compound: "COc1ccccc1-c1cc(=O)c2cccnc2[nH]1"
  Value reported: "> 100 µM"
- Compound: "COc1ccc(C2=NOC3=c4ccccc4=CSC3=C2c2ccccc2)cc1"
  Value reported: "39.7 µM"
- Compound: "CCOC(=O)NC(Nc1ccc(C(=O)O)cc1)(C(F)(F)F)C(F)(F)F"
  Value reported: "> 100 µM"
- Compound: "COc1ccc(-c2nc3sccn3c2/C=C/C(=O)c2cc(OC)c(OC)c(OC)c2)cc1"
  Value reported: "2.98 µM"
- Compound: "CCOC(=O)/C(=C/c1cn(C(C)=O)c2ccccc12)P(=O)(OC)OC"
  Value reported: "> 100 µM"
- Compound: "Cc1cc(S(=O)(=O)NC2=NCc3c(F)cccc3N2)c(S)cc1Cl"
  Value reported: "> 100 µM"
- Compound: "COC(=O)c1sc2c(Cl)c(Cl)sc2c1Cl"
  Value reported: "> 100 µM"
- Compound: "Cc1ccc(-n2cc(/C(N)=N/O)c3ccccc3c2=O)cc1"
  Value reported: "> 100 µM"
- Compound: "Cc1c(-c2ccccc2)oc(=O)c2ccccc12"
  Value reported: "33.8 µM"
- Compound: "OCCN1CCCN(CCCN2c3ccccc3Sc3ccc(C(F)(F)F)cc32)CC1"
  Value reported: "3.09 µM"

###

Listing of recorded GI50 by entry.
# Tested on: UACC-62 melanoma
# Test protocol: NCI tumour cell line growth inhibition, 48 h

- Compound: "Nc1nc2c(ncn2C2OC(CO)C(O)C2O)c(=O)[nH]1 (centres undefined)"
  GI50: "> 100 µM"
- Compound: "COc1cc2c(cc1OC)C(Sc1ccc(Cl)cc1)c1c(nc(N)c(C#N)c1N)O2 (centres undefined)"
  GI50: "1.27 µM"
- Compound: "CC[C@]1(O)C[C@@H]2CN(CCc3c([nH]c4ccccc34)[C@@](C(=O)OC)(c3cc4c(cc3OC)N(C)[C@H]3[C@@](O)(C(=O)OC)[C@H](OC(=O)CCCBr)[C@]5(CC)C=CCN6CC[C@]43[C@@H]65)C2)C1"
  GI50: "< 0.01 µM"
- Compound: "Cc1nc2sc(C(=O)Nc3cccc(Cl)c3)c(N)c2cc1C(O)c1ccccc1 (centres undefined)"
  GI50: "0.757 µM"
- Compound: "CCCCCCC1CCCCN1C(c1ccccc1)C(O)c1ccccc1 (centres undefined)"
  GI50: "11.7 µM"
- Compound: "COc1ccc(-c2nn(-c3cccc(Cl)c3)cc2-c2c(C#N)c(=O)n3[nH]c(-c4ccc(C)o4)nc3c2C#N)cc1"
  GI50: "6.46 µM"
- Compound: "O=C([CH-]C(=O)c1ccccc1)c1ccccc1.[CH2-]C.[CH2-]C.[Tl+3]"
  GI50: "20.8 µM"
- Compound: "COc1cc(-c2ccc[nH]2)[nH]c1/C=C1\\N=C(C)C(C(=O)NC(C)C)=C1C"
  GI50: "2.68 µM"
- Compound: "CNc1ccc(CSc2ccc(C)cc2)cc1"
  GI50: "17.3 µM"

###

Let's look at some molecules and their measured TGI.
# Test system: KM12 colon
# Test protocol: NCI tumour cell line growth inhibition, 48 h
Parameter: TGI (µM)

- Molecule: "CCOc1ccc(N=Nc2c(-c3ccccc3)nn(C(=O)CC(=O)Nc3ccccc3Cl)c2-c2ccccc2)cc1"
  Unit symbol: "µM"
  Sign qualifier: ">"
  Value reported: 100
- Molecule: "O=C(O)c1cc2ccc(Cl)cc2c(O)c1C1=CCCCC1"
  Unit symbol: "µM"
  Sign qualifier: ">"
  Value reported: 100
- Molecule: "Cc1cccc(NC(=O)CSc2nnc(-c3ccc(N=Cc4ccc(Cl)cc4)cc3)o2)c1"
  Unit symbol: "µM"
  Sign qualifier: ">"
  Value reported: 100
- Molecule: "O=C(Cc1csc2nc(-c3ccc(Br)cc3)cn12)N/N=C/c1ccccc1O"
  Unit symbol: "µM"
  Sign qualifier: "="
  Value reported: 16.8
- Molecule: "CC1OC23CCCCC2C(C#N)(C#N)C1(C#N)C(=N)O3 (stereo not given)"
  Unit symbol: "µM"
  Sign qualifier: "="
  Value reported: 61.1
